Assignment: determine reported IC50 for the given molecules.
# Measured on: TLR7/NFKb HEK cells (Homo sapiens, UniProt Q9NYK1)
# Sequence (Q9NYK1 27-1049): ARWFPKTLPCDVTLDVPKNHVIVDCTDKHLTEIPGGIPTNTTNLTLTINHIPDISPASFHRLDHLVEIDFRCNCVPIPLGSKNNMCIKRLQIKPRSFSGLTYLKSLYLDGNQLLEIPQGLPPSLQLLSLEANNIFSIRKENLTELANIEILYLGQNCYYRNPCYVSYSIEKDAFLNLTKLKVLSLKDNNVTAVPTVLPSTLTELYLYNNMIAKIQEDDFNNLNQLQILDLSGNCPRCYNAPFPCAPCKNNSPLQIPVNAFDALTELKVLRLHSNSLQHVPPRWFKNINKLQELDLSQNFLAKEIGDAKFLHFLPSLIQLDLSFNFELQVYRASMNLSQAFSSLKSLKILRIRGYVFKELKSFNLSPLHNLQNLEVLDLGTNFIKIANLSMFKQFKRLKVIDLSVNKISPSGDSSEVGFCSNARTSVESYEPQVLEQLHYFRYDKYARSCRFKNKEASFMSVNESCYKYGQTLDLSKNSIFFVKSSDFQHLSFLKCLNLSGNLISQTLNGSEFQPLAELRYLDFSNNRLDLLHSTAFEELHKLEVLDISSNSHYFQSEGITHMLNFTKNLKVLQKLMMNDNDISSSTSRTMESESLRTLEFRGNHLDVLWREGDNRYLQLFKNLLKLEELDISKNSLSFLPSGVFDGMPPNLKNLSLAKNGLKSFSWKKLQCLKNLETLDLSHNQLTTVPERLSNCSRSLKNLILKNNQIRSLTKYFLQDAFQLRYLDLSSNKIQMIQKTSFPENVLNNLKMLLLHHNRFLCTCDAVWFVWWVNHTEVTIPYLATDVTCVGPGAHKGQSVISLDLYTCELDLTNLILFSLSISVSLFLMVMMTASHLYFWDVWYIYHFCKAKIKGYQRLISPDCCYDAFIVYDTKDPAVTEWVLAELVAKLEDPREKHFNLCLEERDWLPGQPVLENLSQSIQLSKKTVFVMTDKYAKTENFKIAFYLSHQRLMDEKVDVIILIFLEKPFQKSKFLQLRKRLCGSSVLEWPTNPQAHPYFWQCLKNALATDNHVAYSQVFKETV
# Assay summary: HEK Cell Assay (TLR7/NFKb reporter, Steady-Glo luciferase readout)
# Details: 30 min compound preincubation, then R*48 agonist for 5 hours, read-out: Potency
# Method: Example 142: HEK Cell Assay Into 384 CulturePlates (Corning 3707) was placed 5000 c/w of TLR7/NFKb HEK cells in 30 uL DMEM without Phenil red (gibco #31053) and 10% i.a. FCS and 2 mM L-ZGLutamin. The cells were incubated for 24 h at 37° C., 10% carbon dioxide and 90% relative humidity. […] The assay plate was allowed to sit for 30 min at room temperature and then the plate was read on EnVision.
Structures can show the parent of a compound that is named as a salt.

Req: # lookup: IC50 of CN(C(=O)CN1CCOCC1)[C@H]1C[C@@H](C2CC2)CN(c2ccc(F)c3ncccc23)C1 (racemic)
Resp: > 10 µM

Req: And for CC(C(=O)N[C@@H]1C[C@H](C)CN(c2ccc(C#N)c3nccnc23)C1)N1CC(F)(F)C1 (stereo partly drawn) ?
Resp: 1 to 10 µM

Req: Now the same for N#Cc1ccc(N2CC(NC(=O)CCC(=O)N3CCC3)CC(C(F)(F)F)C2)c2cccnc12 (single isomer, unassigned) [Compound 494]
Resp: > 10 µM

Req: Proceed to C[C@H]1C[C@@H](NCC#N)CN(c2ccc(C#N)c3nccnc23)C1
Resp: < 1 µM

Req: Also, C[C@H]1C[C@@H](NC(=O)NCC2CC(F)(F)C2)CN(c2ccc(C(F)(F)F)c3ncccc23)C1 please.
Resp: 1 to 10 µM

Req: What would you report for C[C@H]1C[C@@H](NC(=O)CC2(C)CCN(C)CC2)CN(c2ccc(C(F)(F)F)c3nccnc23)C1 ?
Resp: < 1 µM

Req: Same again, this time with CCN(CC)C1CCN(CC2CCN(c3ccnc4nccnc34)CC2)CC1
Resp: 1 to 10 µM

Req: Also check C[C@@H]1C[C@H](O)CN(c2ccc(C(F)(F)F)c3ncccc23)C1 (racemic)
Resp: < 1 µM

Req: Also check CC1CC(N)CN(c2ccc(F)c3nccnc23)C1 (single isomer, unassigned) [Compound 339]
Resp: < 1 µM

Req: Another molecule: CC(C)[C@H](N)C(=O)N[C@@H]1C[C@H](C)CN(c2ccc(C#N)c3nccnc23)C1
Resp: < 1 µM

Req: Do the same for CC(C)[C@H](N)C(=O)N[C@@H]1C[C@H](C)CN(c2ccnc3nccnc23)C1 please
Resp: < 1 µM

Req: Another molecule: C[C@H]1C[C@@H](NC(=O)C2(O)CC2)CN(c2ccc(C(F)(F)F)c3nccnc23)C1
Resp: 1 to 10 µM

Req: Similarly, C[C@H]1C[C@@H](N)CN(c2c(F)cc(C#N)c3nccnc23)C1 ?
Resp: 1 to 10 µM

Req: # repeat for C[C@@H]1C[C@@H](CN2CCC(N3CCOCC3)CC2)CN(c2ccc(C(F)(F)F)c3ncccc23)C1 (relative stereo)
Resp: 1 to 10 µM

Req: And CN[C@@H]1C[C@H](C)CN(c2ccc(C#N)c3nccnc23)C1 [Compound 16, hydrochloride] ?
Resp: < 1 µM
